Origin of values: patent US20170165338A1

Target: HLA-A*24 (human)
Assay: UV-exchange b2m ELISA
peptide exchange yield values, listed per item

[
  {
    "BINDER": "IYATEAHVF",
    "peptide exchange yield": "50 to 75%"
  },
  {
    "BINDER": "IYSWILDHF",
    "peptide exchange yield": "> 75%"
  },
  {
    "BINDER": "EYSLFPGQVVI",
    "peptide exchange yield": "50 to 75%"
  },
  {
    "BINDER": "RFHPTPLLL",
    "peptide exchange yield": "> 75%"
  },
  {
    "BINDER": "LFIPSSKLLFL",
    "peptide exchange yield": "50 to 75%"
  },
  {
    "BINDER": "VFTRVSSFL",
    "peptide exchange yield": "50 to 75%"
  },
  {
    "BINDER": "YYVESGKLF",
    "peptide exchange yield": "> 75%"
  },
  {
    "BINDER": "DYLKGLASF",
    "peptide exchange yield": "> 75%"
  }
]
